Item-by-item account of log10(EC50)
measured_on: human α7 nAChR stably expressed in a HEK cell line (with human RIC-3) (Homo sapiens, UniProt P36544)
Construct: PrecisION hnAChR α7/RIC-3
Sequence (P36544 23-502): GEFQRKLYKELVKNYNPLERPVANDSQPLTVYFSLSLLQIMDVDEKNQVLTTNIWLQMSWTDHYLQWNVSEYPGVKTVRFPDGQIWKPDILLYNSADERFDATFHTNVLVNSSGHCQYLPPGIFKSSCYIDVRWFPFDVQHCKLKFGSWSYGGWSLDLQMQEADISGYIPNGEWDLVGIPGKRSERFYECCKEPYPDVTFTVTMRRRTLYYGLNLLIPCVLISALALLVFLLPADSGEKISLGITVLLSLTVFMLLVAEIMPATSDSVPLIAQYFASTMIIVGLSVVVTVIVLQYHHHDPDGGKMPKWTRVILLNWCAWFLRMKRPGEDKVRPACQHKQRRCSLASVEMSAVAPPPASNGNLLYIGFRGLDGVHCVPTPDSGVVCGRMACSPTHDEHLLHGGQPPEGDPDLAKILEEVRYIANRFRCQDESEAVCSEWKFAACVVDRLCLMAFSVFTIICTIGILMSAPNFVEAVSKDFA
assay_text: Automated patch-clamp electrophysiology functional assay (Assay A), IonFlux HT, whole-cell population patch
Type: cell-based
assay_conditions: electrophysiology EC50, HEK cells expressing human α7/RIC-3, 40 μM acetylcholine, holding potential −60 mV, room temperature; read-out: α7 nAChR EC50
parameter_measured: log10(EC50) (log10 of the value in nM)

{"molecule": "C#Cc1ccc(-c2nc([C@H]3[C@H](c4ccc(S(N)(=O)=O)cc4)C3(C)C)no2)cc1", "log10(EC50)": 3.28}
{"molecule": "NS(=O)(=O)c1ccc([C@H]2C[C@@H]2c2cnc(-c3ccccc3)o2)cc1", "log10(EC50)": 3.68}
{"molecule": "NS(=O)(=O)c1ccc([C@@H]2[C@@H](c3nc(-c4cccc(F)c4)no3)C2(Cl)Cl)cc1 (relative stereo)", "log10(EC50)": 2.67}
{"molecule": "CC1(C)[C@H](c2ccc(S(N)(=O)=O)cc2)[C@H]1c1cnn(-c2cccc(F)c2)c1", "log10(EC50)": 2.53}
{"molecule": "CC(C)(F)c1noc([C@H]2[C@H](c3ccc(S(N)(=O)=O)cc3)C2(F)F)n1", "log10(EC50)": 2.61}
{"molecule": "Cc1ccc(-c2noc([C@@H]3C[C@H]3c3ccc(S(N)(=O)=O)cc3)n2)cc1", "log10(EC50)": 2.71}
{"molecule": "CC(C)Oc1ccc(Cl)cc1-c1noc([C@@H]2[C@@H](c3ccc(S(N)(=O)=O)cc3)C2(C)C)n1", "log10(EC50)": 3.68}
{"molecule": "CC1(C)[C@@H](c2ccc(S(N)(=O)=O)cc2)[C@@H]1c1noc(-c2ccc(F)cc2Cl)n1", "log10(EC50)": 2.71}
{"molecule": "CC1(C)[C@@H](c2ccc(S(N)(=O)=O)cc2)[C@@H]1c1nc(C2CCCC2)co1", "log10(EC50)": 2.11}
{"molecule": "CC1(C)[C@@H](c2ccc(S(N)(=O)=O)cc2)[C@@H]1c1nnc(C2CCCC2)o1", "log10(EC50)": 2.80}
{"molecule": "CCc1coc([C@H]2[C@H](c3ccc(S(N)(=O)=O)cc3)C2(C)C)n1", "log10(EC50)": 2.73}
{"molecule": "CC1(C)[C@@H](c2ccc(S(N)(=O)=O)cc2)[C@@H]1c1nc(-c2cccnc2C(F)(F)F)no1", "log10(EC50)": 3.08}
{"molecule": "NS(=O)(=O)c1ccc([C@@H]2C[C@H]2c2nsc(N3CCCCC3)n2)cc1", "log10(EC50)": 2.15}
{"molecule": "NS(=O)(=O)c1ccc([C@@H]2C[C@H]2c2nc(-c3ccc(F)cc3)no2)cc1", "log10(EC50)": 1.97}
{"molecule": "CC1(C)[C@@H](c2ccc(S(N)(=O)=O)cc2)[C@@H]1c1ncc(-c2ccccc2)s1", "log10(EC50)": 3.30}
{"molecule": "NS(=O)(=O)c1ccc([C@H]2[C@H](c3nc(C4CCCCC4)cs3)C2(F)F)cc1", "log10(EC50)": 2.20}
{"molecule": "NS(=O)(=O)c1ccc([C@@H]2C[C@H]2c2nsc(-c3cccc(F)c3)n2)cc1", "log10(EC50)": 1.94}
{"molecule": "CC1(C)[C@H](c2ccc(S(N)(=O)=O)cc2)[C@H]1c1nc(-c2ccccc2F)co1", "log10(EC50)": 3.08}
{"molecule": "CC1(C)[C@H](c2ccc(S(N)(=O)=O)cc2)[C@H]1c1cc(-c2ccccc2)no1", "log10(EC50)": 2.66}
{"molecule": "CC1(C)[C@@H](c2ccc(S(N)(=O)=O)cc2)[C@@H]1c1cc(-c2ccccc2)no1", "log10(EC50)": 2.81}
{"molecule": "CC1(C)[C@@H](c2ccc(S(N)(=O)=O)cc2)[C@@H]1c1noc(-c2cc(F)cc(F)c2F)n1", "log10(EC50)": 2.38}
{"molecule": "NS(=O)(=O)c1ccc([C@@H]2C[C@H]2c2nc(-c3cccc(F)c3)no2)cc1", "log10(EC50)": 2.36}
{"molecule": "CC1(C)[C@@H](c2ccc(S(N)(=O)=O)cc2)[C@@H]1c1noc(C2CCN(C3CC3)CC2)n1", "log10(EC50)": 3.26}
{"molecule": "NS(=O)(=O)c1ccc(C2C(c3nc(-c4ccccc4)no3)C23CCCC3)cc1 (single isomer, unassigned)", "log10(EC50)": 1.92}
{"molecule": "NS(=O)(=O)c1ccc([C@@H]2C[C@H]2c2nc(-c3cccnc3C3CC3)no2)cc1", "log10(EC50)": 2.36}
{"molecule": "CC1(C)[C@@H](c2ccc(S(N)(=O)=O)cc2)[C@@H]1c1cn(-c2cccc(F)c2)nn1", "log10(EC50)": 2.98}

Origin of the recorded values: patent US9840481B2
